- Test system: SKOV3
- experimentalProtocol: cells
- Format: cell-based, human
- recordedConditions: read-out: IC50
pIC50: −log10 of the molar value.
propertyName: pIC50

1. N.N.[Cl][Pt][Cl] [cisplatin] :: 5.08

---

- Test system: SKOV3
- experimentalProtocol: cells
- Type: cell-based, human
- recordedConditions: Homo sapiens, SK-OV-3
propertyName: IC50 (µM)

1. Nc1ccn([C@@H]2O[C@H](CO)[C@@H](O)C2(F)F)c(=O)n1 :: 9.32

---

- Test system: OvCa-26
- experimentalProtocol: cells
- Assay type: cell-based, human
- recordedConditions: read-out: calculated IC50
pIC50: −log10 of the molar value.
propertyName: pIC50

1. N.N.[Cl][Pt][Cl] [cisplatin] :: 4.94
